test summary: folding enthalpy; higher = less favourable; fluorescence melt of hairpins on a sequencing array, two-state fit
condition notes: sodium 0.088 M
Answer each item with its documented folding enthalpy.
Please don't drop the unit; write it after the number.

Guide cases for folding enthalpy, answers given:
Suppose we examine the sequence GCCGTGCGAAAGCGCTGC ((.(.((....)).).)) ; what folding enthalpy value has been reported?
-19.6 kcal/mol

Suppose we examine the sequence GGATGCGAAAGCATGTCC ((((((....)))..))) ; what folding enthalpy value has been reported?
-11.7 kcal/mol

Suppose we examine the sequence GATCATACTCATGATC ((((((....)))))) ; what folding enthalpy value has been reported?
-34 kcal/mol

Suppose we examine the sequence GCAACACGAAAGTGGTGC (((.(((....))).))) ; what folding enthalpy value has been reported?
-32.2 kcal/mol

Suppose we examine the sequence GATCCGTGTCGGATC ((((((...)))))) ; what folding enthalpy value has been reported?
-34.4 kcal/mol

Now look at this entry.
Suppose we examine the sequence GTTAGCGAAAGCTCGAAC ((((((....)))..))) ; what folding enthalpy value has been reported?
-7.85 kcal/mol

* * *

Answer each item with its documented folding enthalpy.
test summary: folding enthalpy; higher = less favourable; fluorescence melt of hairpins on a sequencing array, two-state fit
condition notes: sodium 0.088 M

Suppose we examine the sequence GTGATACGAAAGTACAC (((.(((....)))))) ; what folding enthalpy value has been reported?
-25.8 kcal/mol

Suppose we examine the sequence GTGGGTTCGAAAGAACAC (((..(((....)))))) ; what folding enthalpy value has been reported?
-27 kcal/mol

Suppose we examine the sequence CGAGCACGGAAACGTTCG (((..(((....)))))) ; what folding enthalpy value has been reported?
-13.5 kcal/mol

Suppose we examine the sequence GTTCAAGGAAACCTGAAC (((((.(....).))))) ; what folding enthalpy value has been reported?
-30.1 kcal/mol

Suppose we examine the sequence GGGGGCGGAAACGCTCCC (((.(((....))).))) ; what folding enthalpy value has been reported?
-32.6 kcal/mol

Return reported folding enthalpy values for all items listed beneath this line.
1. GAGGGTGGAAACGCCCTC (((((.(....).)))))
2. GCCATCGAAAGATTTGGC ((((((....)))..)))
3. GGATAACGAAAGTTCTCC (((.(((....))).)))

["-44.3 kcal/mol", "-24.1 kcal/mol", "-32.7 kcal/mol"]

Return reported folding enthalpy values for all items listed beneath this line.
1. CGGGCGGAAACGCCGCCG ((((((....)))..)))
2. GGAAACGAAAGTTGCTCC ((((((....)))..)))
3. GTTTGAGGAAACTCAAGC (.(((((....))))).)

1. -10.2 kcal/mol
2. -12.8 kcal/mol
3. -25.1 kcal/mol

Return reported folding enthalpy values for all items listed beneath this line.
1. GACGTACGAAAGTAGTC (((.(((....))))))
2. GGAAGACGAAAGTCTCC (((.(((....))))))
3. GATCTCGGAAACGAGATC (((((((....)))))))
4. GTTATCGGAAACGGTAAC ((((.((....)).))))
5. GTAGTAGGAAACTACCAC ((.((((....)))).))
6. GTCGAGGGAAACCTTGAC (((.(((....))).)))

1. -34 kcal/mol
2. -20.9 kcal/mol
3. -45.5 kcal/mol
4. -26.8 kcal/mol
5. -17.2 kcal/mol
6. -38.5 kcal/mol

Return reported folding enthalpy values for all items listed beneath this line.
1. GATCAATATTTGATC ((((((...))))))
2. GATCTCTAATGAGATC ((((((....))))))
3. GACCAGGGAAACCTGATC ((.((((....)))).))
4. GCTGAGGGAAACCTCGGC ((.((((....)))).))
5. GCTGGCGGAAACGTCGGC ((.(.((....)).).))
6. GTGTTAGGAAACTGACAC ((((.((....)).))))
7. GATCCTTTGCAGGATC ((((((....))))))

["-27.9 kcal/mol", "-46.5 kcal/mol", "-22.3 kcal/mol", "-39.9 kcal/mol", "-38.7 kcal/mol", "-33.8 kcal/mol", "-30.6 kcal/mol"]

Suppose we examine the sequence GCGTTTCCACGC ((((....)))) ; what folding enthalpy value has been reported?
-22.6 kcal/mol
